For each of the molecules below, state its IC50.
test system: guinea pig ileal strips; experiment: Modified Schultz-Dale Assay: inhibition of antigen-induced anaphylactic contraction of passively sensitized ileal strips; format: cell-based; conditions: Cavia porcellus; added at peak of contraction after antigen; value in parentheses; read-out: Postchallenge IC50

Field: example entries. Status: answers known.
Molecule: CCCCCCCc1ccc(C(=O)[C@@H]2CCCC[C@H]2C(=O)O)cc1 (relative stereo)
IC50: > 25 µM

Molecule: CCCCCCCc1ccc(C(=O)CCCCC(=O)O)cc1N
IC50: > 75 µM

Molecule: CCCCCCCCc1ccc(C(=O)Cc2cccc(C(=O)O)c2)cc1
IC50: > 75 µM

Molecule: O=C(O)c1cccc(C(=O)c2ccc(C3CCCCC3)cc2)c1
IC50: > 75 µM

Molecule: CCCCCCCc1ccc(C(=O)CCCCC(=O)O)cc1[N+](=O)[O-]
IC50: > 75 µM

Molecule: CCCCOc1ccc(C(=O)c2cccc(C(=O)O)c2)c(OC)c1
IC50: 14 µM

Molecule: CCCCCCCc1ccc(C(=O)c2cccc(C(=O)O)c2)cc1
IC50: 57 µM

Proceed to the following item.
Return IC50 (reported value) for this molecule: CCCCCCOc1cc(C)ccc1C(=O)c1cccc(C(=O)O)c1
> 75 µM
